Where these numbers come from: ChEMBL document CHEMBL4513146

tested on: Staphylococcus aureus; settings: Concentration 32 ug.mL-1;; ASSAY_TEST Inhibition of Bacterial Growth; detection method Absorption (OD600); MEDIA CAMHB; plate type 384well; NBS; CORNING #3640; time 18 hr
Description: Antibacterial activity against Staphylococcus aureus MRSA ATCC 43300 (CO-ADD:GP_020); MIC in CAMBH media, using NBS plates, by OD(600)
Potency and affinity values are given separately.

>  <MOLECULE>
COc1ccc(-c2cc3c4nnc(SCC(=O)Nc5cccc(C#N)c5)n4ccn3n2)cc1

>  <Inhibition (%)>
1.06

$$$$
>  <MOLECULE>
CCC(Sc1nnc2c(=O)n(-c3cccc(OC)c3)ccn12)C(=O)Nc1cc(F)ccc1F (stereo not given)

>  <Inhibition (%)>
3.22

$$$$
>  <MOLECULE>
CCCCc1ccc(NC(=O)Cn2c(=O)c3nnc(CCC)n3c3ccccc32)cc1

>  <Inhibition (%)>
2.94

$$$$
>  <MOLECULE>
COc1ccccc1N1CCN(C(=O)Cn2nc3ccc(-c4ccc(Cl)cc4)nn3c2=O)CC1

>  <Inhibition (%)>
8.63

$$$$
>  <MOLECULE>
CCCN(C)c1nccn2c(=O)n(CC(=O)Nc3cccc(SC)c3)nc12

>  <Inhibition (%)>
12.22

$$$$
>  <MOLECULE>
O=C(Cn1nc2c(Oc3ccccc3)nccn2c1=O)Nc1ccc(F)cc1Cl

>  <Inhibition (%)>
2.27

$$$$
>  <MOLECULE>
CCOc1ccc(C(=O)Cn2nc3n(CCC(C)C)c(=O)c4sccc4n3c2=O)cc1

>  <Inhibition (%)>
6.67

$$$$
>  <MOLECULE>
O=C(CSc1nnc2c(=O)n(Cc3ccc(F)cc3)ccn12)NC1CCCC1

>  <Inhibition (%)>
13.37

$$$$
>  <MOLECULE>
COc1ccccc1NC(=O)Cn1nc2c(SCc3ccccc3)nccn2c1=O

>  <Inhibition (%)>
-5.43

$$$$
>  <MOLECULE>
O=C(Cn1nc2c(SCc3ccc(Cl)cc3)nccn2c1=O)Nc1ccccc1F

>  <Inhibition (%)>
4.88

$$$$
